Tested on: KM12 colon
Assay: NCI tumour cell line growth inhibition, 48 h; in the data active = GI50 below about 0.43 µM; inactive = the rest
Outcome codes: active, inactive

INSERT INTO measurements (molecule, assigned_label) VALUES
  ('Cc1cc(N(CCCNc2ccnc3cc(Cl)ccc23)Cc2ccco2)nc(N2CCN(C)CC2)n1', 'inactive'),
  ('O=C(CCCCCCN1CC(=O)N2[C@@H](c3ccc(Cl)c(Cl)c3)c3[nH]c4ccccc4c3C[C@H]2C1=O)NO', 'inactive'),
  ('O=C(CC1(O)C(=O)N(Cc2ccccc2)c2ccccc21)c1ccc(C(=O)NCC2CCC3(CC2)OOC2(CCCCC2)OO3)cc1 (stereo not given)', 'inactive'),
  ('COc1cc2c(cc1OCCCCN1CCN(C(=S)SCCC(C#N)(c3ccccc3)c3ccccc3)CC1)N=C[C@@H]1CCCN1C2=O', 'inactive'),
  ('COC(=O)c1cncc(/C=C/c2c(C)cc(O)cc2C)c1', 'inactive'),
  ('c1ccc2cc(-c3n(Cc4ccc5ccccc5n4)c4ccccc4[n+]3Cc3ccc4ccccc4n3)ccc2c1', 'active'),
  ('Cc1cc(N=Nc2ccccc2C)ccc1N', 'inactive'),
  ('CCN(CC)CCCCCCNc1cc(OC)cc2cccnc12', 'inactive'),
  ('CC(C)(Br)C(=O)C(Br)Br', 'inactive'),
  ('CCCCCCNC(=O)Oc1ccc(/C(=C(\C)c2ccc(Cl)cc2)c2ccc(OCCN3CCCCC3)cc2)cc1', 'inactive');

====

Tested on: UACC-62 melanoma
Test: NCI tumour cell line growth inhibition, 48 h
The entries below are paired with their reported TGI.
quantity measured: TGI (µM)

INSERT INTO measurements (compound, quantity_measured, bound_sign, result_number) VALUES
  ('C(=N/N(Cc1ccccc1)Cc1ccccc1)/c1ccccc1', 'TGI', '>', 100),
  ('COc1ccc(/C(Br)=C2\OC(=O)c3ccccc32)cc1', 'TGI', '>', 10),
  ('COc1ccc(Oc2cccc(C3C4C(=O)N(c5ccc(C)c(Cl)c5)C(=O)C4ON3C(C(N)=O)c3ccccc3)c2)cc1 (stereo not drawn)', 'TGI', '=', 34.9),
  ('O=C1CSC2(CC(/C=C/c3cccc([N+](=O)[O-])c3)=NN2c2cccc(S(=O)(=O)O)c2)N1c1nc2ccccc2s1 (stereo not drawn)', 'TGI', '=', 45.5),
  ('Cc1nc(C(=O)O)c2ccccc2n1', 'TGI', '>', 100),
  ('CCOC(=O)c1c(C)n(-c2ccc(Cl)cc2)c2c1cc(O)c1[nH]c3c(c12)CCCC3', 'TGI', '>', 100),
  ('[O-]c1c2cc(-[n+]3c(-c4ccccc4)cc(-c4ccccc4)cc3-c3ccccc3)cc1COCCOCCOCCOCCOC2', 'TGI', '=', 44.2),
  ('CCOP1(=O)C=C(C)C(Cl)=C(C)C1 (stereo not drawn)', 'TGI', '=', 33.9),
  ('O=c1c2cc(S(=O)(=O)O)ccc2nc(COc2ccc(Oc3ccc(Cl)cc3Cl)cc2)n1-c1ccc(Oc2ccc(Cl)cc2)cc1Cl', 'TGI', '=', 34.7),
  ('NC(=O)C(=O)C1CCC2=C(Sc3ccccc3N2)C1=O (stereo not drawn)', 'TGI', '>', 100),
  ('O=[N+]([O-])c1ccc(N2CCOCC2)c2c1no[n+]2[O-]', 'TGI', '=', 3.87),
  ('Cc1ccc(S(=O)(=O)N/N=C(/CC(=O)c2c(C)n([O-])c3ccccc3[n+]2=O)C(=O)Nc2ccccc2C)cc1', 'TGI', '>', 100),
  ('O=C(O)CCC(=O)c1ccc2sc3ccccc3c2c1', 'TGI', '>', 100),
  ('Oc1ccc(C(c2ccc(O)cc2)c2ccc(Br)cn2)cc1', 'TGI', '=', 15.5),
  ('Cc1cc(C#Cc2ccc(C(C)(C)C)cc2)ccc1-n1c(/C=C/c2ccc(O)cc2O)nc2ccccc2c1=O', 'TGI', '=', 13.5),
  ('COc1cc2c(cc1OC)-c1ncc3c(OC)c(OC)c(OC)cc3c1C2', 'TGI', '=', 25.6),
  ('C=C1CCC2[C@@H](CCC3[C@]2(C)CCC[C@]3(C)C(=O)OC)C1CC=O (stereo partly drawn)', 'TGI', '=', 31.6),
  ('COc1c(=O)cc2cc[nH]c3ccn(C)c1c23', 'TGI', '>', 100),
  ('CCOC(=O)C(=CNc1ccc(NC2=NCC(C)S2)cc1)C(=O)OCC (stereo not drawn)', 'TGI', '=', 26.8),
  ('Cc1cc(C)nc(SC2=C(Nc3cc(Cl)ccc3O)C(=O)N(Cc3ccccc3)C2=O)n1', 'TGI', '=', 41.8),
  ('c1ccc(CCc2cccnc2)nc1', 'TGI', '>', 100),
  ('c1ccc2cc(-c3n(Cc4ccc5ccccc5n4)c4ccccc4[n+]3Cc3ccc4ccccc4n3)ccc2c1', 'TGI', '=', 1.32),
  ('O=C(N/N=C/c1ccc([N+](=O)[O-])cc1)Nc1ccc(C(=O)O)cc1', 'TGI', '>', 100),
  ('CON(C)c1nc(N(C)OC)nc(N(C)OC)n1', 'TGI', '>', 10),
  ('CSc1nc2sc3c(c2c(=O)n1-c1ccc(C(C)C)cc1)CCC(=O)C3', 'TGI', '=', 3.49),
  ('Cc1cc(N(CCC#N)CCC#N)ccc1/C(N=Nc1cccc(Cl)c1)=N/NC(=O)c1cc(Cl)ccc1O', 'TGI', '=', 28.9),
  ('CSC(=S)Nc1cccc(C)n1', 'TGI', '>', 100),
  ('CCOC(=O)C(C(=O)OCC)=C1NC2(c3ccccc3Nc3ccccc32)C(C#N)S1 (stereo not drawn)', 'TGI', '=', 22);
